From: patent US20080058263A1

# Measurement Target: T1, VEGFR-2-Fc (UniProt P35968 20-322)
# T1 construct: domain: first 3 Ig domains; conditioned supernatant of 293T cells; also called VEGFR-2-Fc fusion protein; not shown: Fc fragment of the pIg vector
# T1 sequence (P35968 20-322): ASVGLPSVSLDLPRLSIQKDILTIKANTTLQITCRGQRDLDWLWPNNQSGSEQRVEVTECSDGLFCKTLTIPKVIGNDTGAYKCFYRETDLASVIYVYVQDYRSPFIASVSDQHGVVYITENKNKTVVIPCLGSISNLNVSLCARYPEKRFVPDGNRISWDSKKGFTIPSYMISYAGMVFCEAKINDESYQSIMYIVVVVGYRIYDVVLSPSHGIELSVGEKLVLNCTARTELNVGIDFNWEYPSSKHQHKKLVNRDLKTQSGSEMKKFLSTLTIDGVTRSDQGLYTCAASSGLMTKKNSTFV
# Experimental Details: receptor-Fc IP
Observation Type: binding result

32-13 (ligand) GQNHHEVVKSIDNEWRKTQCMPIETLVDIFQEFGVATNTFFKPPCVSVYRCGGCCNDEGLECVPTEESNITMQIMRITVPLSQGPKPVTISFANHTSCRCMSKLD = no binding
33-5 (ligand) GQNHHEVVKSIDNEWRKTQCMPIETLVDIFQEYPDEIEYIFKPPCVSVYRCGGCCNDEGLECVPTEESNITMQIMRIKPHQGQHIGEMSFANHTSCRCMSKLD = no binding
42-13 (ligand) AHYNTEILKFMDVYQRSYCHPREVCIDVGKEFGVATNTFFKPPCVSVYRCGGCCNDEGLECVPTEESNITMQIMRITVPLSQGPKPVTISFANHTSCRCMSKLD = no binding
33-3 (ligand) GQNHHEVVKSIDNEWRKTQCMPIETLVDIFQEYPDEIEYIFKPPCVSVYRCGGCCNSEGLQCVPTEESNITMQIMRIKPHQGQHIGEMSFLQHNKCECRPKKD = binds
